tested.target: PD-L1 (human)
Sequence (chain, as listed by the source): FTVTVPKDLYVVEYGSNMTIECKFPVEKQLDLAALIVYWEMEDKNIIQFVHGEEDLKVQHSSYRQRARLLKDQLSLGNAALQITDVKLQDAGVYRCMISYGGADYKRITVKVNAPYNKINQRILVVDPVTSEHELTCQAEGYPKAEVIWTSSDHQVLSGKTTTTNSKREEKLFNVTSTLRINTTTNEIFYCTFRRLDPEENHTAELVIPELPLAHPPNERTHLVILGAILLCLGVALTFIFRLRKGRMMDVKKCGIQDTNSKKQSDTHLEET
experimental.details: flow cytometry, CHO cells expressing PD-L1
Assign Yes whenever Fold change to WT CD80 does not fall below 4 fold; assign No whenever it does.

# binder, cat
records = [
    ("variant CD80 E35D/T41S/M43V/M47I/L70M/A71G (Fc fusion) VIHVTKEVKEVATLSCGHNVSVEELAQTRIYWQKDKKMVLSMVSGDINIWPEYKNRTIFDITNNLSIVIMGLRPSDEGTYECVVLKYEKDAFKREHLAEVT", "No"),
    ("variant CD80 E35D/M47V/N48K/V68M/K89N (Fc fusion) VIHVTKEVKEVATLSCGHNVSVEELAQTRIYWQKDKKMVLTMMSGDVKIWPEYKNRTIFDITNNLSIMILALRPSDEGTYECVVLKYENDAFKREHLAEVT", "Yes"),
]

Task: Does Fold change to WT CD80 meet or surpass 4 fold for variant CD80 E35D/D46E/M47V/V68M/D90G/K93E (Fc fusion) VIHVTKEVKEVATLSCGHNVSVEELAQTRIYWQKDKKMVLTMMSGEVNIWPEYKNRTIFDITNNLSIMILALRPSDEGTYECVVLKYEKGAFEREHLAEVT ?
Output: Yes

Task: hey, is Fold change to WT CD80 for this one >= 4 fold? variant CD80 E35D/D46E/M47V/N63D/L85Q (Fc fusion) VIHVTKEVKEVATLSCGHNVSVEELAQTRIYWQKDKKMVLTMMSGEVNIWPEYKNRTIFDITDNLSIVILALRPSDEGTYECVVQKYEKDAFKREHLAEVT
Output: Yes

Task: Kindly determine if Fold change to WT CD80 recorded for variant CD80 Q27H/E35D/M47I/L85Q/D90G (Fc fusion) VIHVTKEVKEVATLSCGHNVSVEELAHTRIYWQKDKKMVLTMMSGDINIWPEYKNRTIFDITNNLSIVILALRPSDEGTYECVVQKYEKGAFKREHLAEVT is above or exactly 4 fold.
Output: No

Task: hey, is Fold change to WT CD80 for this one >= 4 fold? variant CD80 E35D/M47I/T62S/L85Q (Fc fusion) VIHVTKEVKEVATLSCGHNVSVEELAQTRIYWQKDKKMVLTMMSGDINIWPEYKNRTIFDISNNLSIVILALRPSDEGTYECVVQKYEKDAFKREHLAEVT
Output: No
